assay_details: COV-362 Cancer Cell Toxicity qHTS against the NCATS CANVASS Library (AID 1347352); note: potency is the fitted concentration of half-maximal effect
experimental_setup: COV-362 viability, CellTiter-Glo luminescence, 72 h; series mostly up to 38.3 µM
Text: Natural products and their derivatives continue to be wellsprings of nascent therapeutic potential. […] To address this issue, the Canvass library of natural products was assembled (https://tripod.nih.gov/canvass), in collaboration with academic and industry researchers, for quantitative high-throughput screening (qHTS) across a diverse set of cell-based and biochemical assays. […]
Inconclusive results are not listed. Active and inactive are the calls of the source. Calls come from the whole dose curve; as a rule, active = well fitted cell-killing curve with a large enough effect; inconclusive = small, poorly fitted or top-dose-only effect; inactive = flat fitted curve, though single readings scatter.
experimental_endpoint: Potency

Guide cases for Potency, answers given:
# compound, Potency
records = [
    ("CN(C)Cc1c[nH]c2ccccc12", "inactive"),
    ("COC(=O)C1=C2Nc3ccccc3[C@@]23CCN2CC(C(C)=O)C1C[C@H]23 (stereo not given in full)", "inactive"),
    ("NCCc1ccccc1", "inactive"),
    ("CC1=CC(=O)C2=C(C)C[C@H](O)[C@@H]3[C@H](OC(=O)[C@@H]3C)[C@@H]12", "inactive"),
    ("CCCCC[C@@H]1OC(=O)[C@@H](C)N(C)C(=O)[C@H](CCCCC)OC(=O)C(C)N(C)C(=O)[C@H](CCCCC)OC(=O)[C@@H](C)N(C)C(=O)[C@H](CCCCC)OC(=O)C(C)N(C)C1=O (stereo not given in full)", "9.41 µM (active)"),
]

What value of Potency has been reported for the following compound? CC[N@@+]1([O-])C[C@]2(C)CC[C@@H](O)[C@@]34C5C[C@H]6CC[C@@]5(C(C[C@H]23)C41)[C@H](O)[C@@]6(O)CO (stereo not given in full)
inactive

What value of Potency has been reported for the following compound? CO[C@@H](/C=C/CC/C=C/C(=O)O)[C@@H](O)[C@H](C)/C=C(\C)[C@@H](O)[C@H](C)C(=O)CCCC1CC(=O)NC(=O)C1
inactive

----------
assay_details: Confirmatory qHTS for small molecule stabilizers of the endoplasmic reticulum resident proteome: Secreted ER Calcium Modulated Protein (SERCaMP) assay (AID 1508628); note: nearly all actives have a fitted effect of over 40% in size
experimental_setup: SERCaMP secreted luciferase ER calcium/proteostasis reporter; series mostly up to 76.3 µM
Results filed as inconclusive are left out. Active and inactive are the calls of the source. The call rests on the fitted dose curve; in most records, active means well fitted inhibition curve with a large enough effect; inconclusive means small, poorly fitted or top-dose-only effect; inactive means no such curve, though single readings can be large or run the other way.
Please answer using one outcome listed in active, inactive

# molecule, class_name
data = [
    ("CN(C(=O)Cc1ccc(Cl)c(Cl)c1)[C@H](CN1CCCC1)c1ccccc1", "inactive"),
    ("CN1CC[C@@]23CCCCC2C1Cc1ccc(O)cc13 (some centres undefined)", "active"),
    ("CCC(Oc1ccc(Cl)cc1)C(=O)OC1CC2CCC(C1)N2C (centres undefined)", "active"),
]

Now look at this entry.
Which outcome was entered for the molecule OC[C@@H]1[C@@H](O)[C@H](O)[C@H]2[C@@H](O)CCN21 in this test?
inactive

----------
assay_details: qHTS for Inhibitors of the Functional Ribonucleoprotein Complex (vRNP) of Lassa (LASV) Arenavirus: LASV Primary Screen - GLuc reporter signal (AID 1347082); note: % is set by controls: 0 for no effect and ±100 for the full control effect; nearly all actives have a fitted effect of over 60% in size
experimental_setup: LASV minigenome vRNP, Gaussia luciferase reporter; series mostly up to 57.5 µM
Results filed as inconclusive are left out. Active and inactive are the calls of the source. Calls follow the shape of the full dose curve; tested in HEK293 reporter line.
Please answer using one outcome listed in active, inactive

Here are 5 molecules together with their reported answers.
# molecule, class_name
records = [
    ("O=[N+]([O-])c1ccc(-c2nc(-c3ccc(F)cc3)c(-c3ccncc3)[nH]2)cc1", "inactive"),
    ("CC(C)(CO)[C@@H](O)C(=O)NCCC(=O)O", "inactive"),
    ("Cn1cnc2c(ncn2[C@@H]2O[C@H](CO)[C@@H](O)[C@H]2O)c1=N", "inactive"),
    ("CCCCC=O", "inactive"),
    ("CC(=O)OC[C@@]12C(=O)[C@@H](O)[C@@H](C)[C@]3(C[C@@H](c4ccoc4)O[C@@H]3OC(C)=O)[C@H]1CCC[C@]21CO1", "inactive"),
]

Which outcome was entered for the molecule O=C(OCC#CCSc1nnc(-c2cccc3ccccc23)o1)c1cc2ccccc2s1 in this test?
inactive

Which outcome was entered for the molecule CC1CC(C)C(=O)C1=O (configuration not stated) in this test?
inactive

Which outcome was entered for the molecule COc1ccc(NC(=O)c2ccc(-c3ccc(-c4noc(C)n4)cc3C)cc2)cc1N1CCN(C)CC1 in this test?
inactive

Which outcome was entered for the molecule C=CC1(C)CC(=O)C2(O)C(C)(O1)C(OC(C)=O)C(O)C1C(C)(C)CCC(O)C12C (configuration not stated) in this test?
inactive

Which outcome was entered for the molecule NC(=O)CNCCC(c1ccccc1)c1ccccc1 in this test?
inactive

Which outcome was entered for the molecule CC1=CC2OC3CC4OC(=O)C=CC=CC(=O)OCCC(C)C(O)C(=O)OCC2(CC1)C4(C)C31CO1 (configuration not stated) in this test?
inactive

----------
assay_details: qHTS assay for cell viability of HEK293 cells (AID 743288); note: % is set by controls: 0 for no effect and ±100 for the full control effect; nearly all actives have a fitted effect of over 50% in size
experimental_setup: ATP luminescence (CellTiter-Glo), 18 h; stronger effect = lower value
Records with an inconclusive call do not appear.
experimental_endpoint: max response (%)
Please respond with the number in % and leave the unit unwritten.

Guide cases for max response, answers given:
# compound, numeric_value
data = [
    ("Cc1ccc(C)c2ccccc12", -1.65),
    ("CCOC(=O)c1ccccc1N", -8.89),
    ("O=Cc1ccccc1", -12),
]

What value of max response has been reported for the following compound? COC1=CC(=O)OC(CCc2ccc3c(c2)OCO3)C1 (configuration not stated)
-5.17

What value of max response has been reported for the following compound? CC(C)OC(=O)Nc1ccccc1
-1.53

What value of max response has been reported for the following compound? C[C@H]1O[C@H](OC2[C@@H](O)[C@@H](O)C(O)[C@H](O)[C@H]2O)[C@@H](N)C[C@@H]1N=C(N)C(=O)O (some centres not stated)
0.169

What value of max response has been reported for the following compound? CCOP(=S)(OCC)SCSCC
-10.1

----------
assay_details: qHTS for Inhibitors of the Functional Ribonucleoprotein Complex (vRNP) of Lassa (LASV) Arenavirus: Viability assay - alamar blue signal for LASV Primary Screen (AID 1347083); note: nearly all actives have a fitted effect of over 80% in size
experimental_setup: cell viability, alamar blue fluorescence (LASV minigenome counter-screen); series mostly up to 57.5 µM
Results filed as inconclusive are left out. Calls of active or inactive are those of the source. Calls follow the shape of the full dose curve; tested in HEK293 reporter line.
Please answer using one outcome listed in y (active), n (inactive)

# compound, class_name
rows = [
    ("COc1cccc(Nc2c(C(N)=O)cnc3c(C)cc(S(=O)(=O)c4cccc(C(=O)N(C)C)c4)cc23)c1", "y"),
]

Which outcome was entered for the compound Cc1cn([C@@H]2C[C@@H](O)[C@H](CO)O2)c(=O)[nH]c1=O in this test?
n

Which outcome was entered for the compound Cc1ccc(C2=Nc3ccc(Cl)cc3OC2)cc1 in this test?
n

Which outcome was entered for the compound COc1cc(C)c(C(=O)Oc2cc(C)c(C(=O)O)c(O)c2C)c(O)c1C in this test?
n

Which outcome was entered for the compound COc1cc(-c2cc(=O)c3c(O)cc(O)cc3o2)ccc1O in this test?
n

Which outcome was entered for the compound COC(=O)/C=C/c1ccccc1 in this test?
n

Which outcome was entered for the compound c1ccc(Nc2cccc3ccccc23)cc1 in this test?
n

Which outcome was entered for the compound C=C1C[C@@]23CC4C5[C@@]6(C)C[C@H](O)C[C@@]57C2[C@H](O)[C@@H]1[C@H](O)[C@H]3[C@H]7N4C6 in this test?
n

Which outcome was entered for the compound CC(C)C1Oc2cc3oc(=O)ccc3cc2C1=O (stereo not given) in this test?
n

Which outcome was entered for the compound CC1(C)S[C@H]2[C@H](NC(=O)[C@@H](N)c3ccc(O)cc3)C(=O)N2[C@@H]1C(=O)O in this test?
n

----------
assay_details: KB-8-5-11 Cancer Cell Toxicity qHTS against the NCATS CANVASS Library (AID 1347364); note: nearly all actives have a fitted effect of over 75% in size
experimental_setup: KB-8-5-11 MDR cells viability, CellTiter-Glo, 72 h; series mostly up to 46.1 µM
Inconclusive results are not listed. Calls of active or inactive are those of the source. Calls come from the whole dose curve; as a rule, active = well fitted cell-killing curve with a large enough effect; inconclusive = small, poorly fitted or top-dose-only effect; inactive = flat fitted curve, though single readings scatter.
Please answer using one outcome listed in class 1 = active, class 0 = inactive

Here are 10 compounds together with their reported answers.
# compound, class_name
records = [
    ("C=C1[C@@H](C)[C@H]2[C@H](Cc3ccccc3)NC(=O)[C@]23OC(=O)/C=C/[C@H](O)CCC[C@@H](C)C/C=C/[C@H]3[C@@H]1O", "class 1"),
    ("CCN1C[C@]2(C)CC[C@H](O)[C@]34C1C(C[C@H]23)[C@@]12CC[C@H](CC14)[C@](O)(COC(=O)c1ccc(OC)c(OC)c1)[C@H]2O (some centres not stated)", "class 0"),
    ("CCC[C@H]1CC[C@H]2[C@H](C)CCC[C@H]2N1", "class 0"),
    ("CC[C@@H]1CN2CC[C@@]3(O)C(=Nc4cccc(OC)c43)[C@@H]2C[C@@H]1/C(=C\\OC)C(=O)OC", "class 0"),
    ("C/C=C1/CN2CC[C@]34C(=Nc5ccccc53)[C@@H]2C[C@@H]1[C@H]4C(=O)OC", "class 0"),
    ("CNCCc1c[nH]c2ccccc12", "class 0"),
    ("CCC(=O)CCCCC[C@@H]1NC(=O)[C@H]2CCCCN2C(=O)[C@H]([C@@H](C)CC)NC(=O)[C@H](Cc2cn(OC)c3ccccc23)NC1=O", "class 1"),
    ("CC1=CC(=O)C2=C(C)C[C@H](O)[C@@H]3[C@H](OC(=O)[C@@H]3C)[C@@H]12", "class 0"),
    ("CO[C@@H](/C=C/CC/C=C/C(=O)O)[C@@H](O)[C@H](C)[C@@H](O)/C(C)=C/[C@H](C)C(=O)CCCC1CC(=O)NC(=O)C1", "class 0"),
    ("CO[C@@H](/C=C/CC/C=C/C(=O)O)[C@@H](O)[C@H](C)/C=C(\\C)[C@@H](O)[C@H](C)C(=O)CCCC1CC(=O)NC(=O)C1", "class 0"),
]

Which outcome was entered for the compound c1ccc2c3c([nH]c2c1)CNCC3 in this test?
class 0

Which outcome was entered for the compound C[C@@H]1CC[C@@H](c2ccoc2)N2C[C@@]3(CC[C@@H]12)CS[C@@]1(CC[C@H]2[C@H](C)CC[C@@H](c4ccoc4)N2[C@@H]1O)C3 in this test?
class 1
